Tested on: Jurkat
Procedure details: Inhibition of TNF-alpha-induced necroptosis in FADD-deficient Jurkat T cells
Assay type: functional, cell-based, Homo sapiens
Design: concentration or dose not given beside the values
In plain terms, low Activity, meaning strictly below 70%, gives label 1, and everything else gives label 0.

Example cases with answers are listed next.
- Test smiles: "COc1ccc(-n2c(SC)nc3sc4c(c3c2=O)CCCC4)cc1OC"
  Class assignment: "label 1"
- Test smiles: "N#CCSc1nc2sc3c(c2c(=O)n1-c1ccc2c(c1)OCO2)CCCC3"
  Class assignment: "label 0"
- Test smiles: "CSc1nc2sc(C)c(C)c2c(=O)n1-c1ccc2c(c1)OCO2"
  Class assignment: "label 1"

Is Activity of `C#CCSc1nc2sc3c(c2c(=O)n1-c1ccc(OC)cc1)CCCC3` strictly below 70%?
label 0

---

Tested on: Jurkat
Procedure details: Inhibition of TNF-alpha-induced necroptosis in FADD-deficient Jurkat T cells
Format: functional, cell-based, Homo sapiens
Parameters: concentration or dose not given beside the values
Measurement kind: Activity (%)
Use % as the unit, but write only the number.

- Molecule: "COc1ccc(-n2c(SCC#N)nc3c(c2=O)C2CCCCCC2S3)cc1 (centres undefined)"
  Endpoint unit: "%"
  Activity: 83
- Molecule: "N#CCSc1nc2sc3c(c2c(=O)n1-c1ccc(F)cc1)CCCC3"
  Endpoint unit: "%"
  Activity: 85.1
- Molecule: "CCc1sc2nc(SCC#N)n(-c3ccc(OC)cc3)c(=O)c2c1C"
  Endpoint unit: "%"
  Activity: 86.8

Kindly review the next molecule as well.
Lab note: measured Activity of `COc1ccc(-n2c(SC)nc3sc4c(c3c2=O)CCC4)cc1` was 97

---

Reported Activity by item:
Test system: Jurkat
Procedure details: Inhibition of TNF-alpha-induced necroptosis in FADD-deficient Jurkat T cells
Format: functional, cell-based, Homo sapiens
Design: concentration or dose not given beside the values
Use % as the unit, but write only the number.

Use these answered entries as a reference point.
- Test smiles: "N#CCSc1nc2sc3c(c2c(=O)n1-c1ccc(F)cc1)CCC3"
  Target system: "Jurkat"
  Endpoint unit: "%"
  Activity: 88.7
- Test smiles: "COc1cccc(-n2c(SCC#N)nc3sc4c(c3c2=O)CCCC4)c1"
  Target system: "Jurkat"
  Endpoint unit: "%"
  Activity: 87.7

Lab note: measured Activity of `COc1ccc(-n2c(SC)nc3sc4c(c3c2=O)CCCC4)cc1` was 71

Lab note: measured Activity of `N#CCSc1nc2sc3c(c2c(=O)n1-c1ccc2c(c1)OCCO2)CCC3` was 100

Lab note: measured Activity of `CSc1nc2sc3c(c2c(=O)n1-c1ccc(F)cc1)CCC3` was 95

Lab note: measured Activity of `Cc1ccc(-n2c(SCC#N)nc3sc4c(c3c2=O)CCCC4)cc1C` was 45

Lab note: measured Activity of `CCc1c(C)sc2nc(SCC#N)n(-c3ccc4c(c3)OCO4)c(=O)c12` was 100

Lab note: measured Activity of `COc1ccc(-n2c(SCC#N)nc3sc4c(c3c2=O)CCC4)cc1` was 100

Lab note: measured Activity of `N#CCSc1nc2sc3c(c2c(=O)n1-c1ccc2c(c1)OCO2)CCC3` was 100

---

Test system: Jurkat
Procedure details: Inhibition of TNF-alpha-induced necroptosis in FADD-deficient Jurkat T cells
Type: functional, cell-based, Homo sapiens
Parameters: concentration or dose not given beside the values
Reported Activity by item:
Use % as the unit, but write only the number.

Use these answered entries as a reference point.
- Test smiles: "COc1ccc(-n2c(SC)nc3sc4ccccc4c3c2=O)cc1"
  Target system: "Jurkat"
  Activity / %: 77
- Test smiles: "Cc1ccc(-n2c(SCC#N)nc3sc4c(c3c2=O)CCCC4)cc1"
  Target system: "Jurkat"
  Activity / %: 48.6
- Test smiles: "C#CCSc1nc2sc(C)c(C)c2c(=O)n1-c1ccc(OC)cc1"
  Target system: "Jurkat"
  Activity / %: 90.3

So the reported Activity for `Cc1sc2nc(SCC#N)n(-c3ccc4c(c3)OCO4)c(=O)c2c1C` , on Jurkat, turned out to be 100

So the reported Activity for `N#CCSc1nc2sc3c(c2c(=O)n1-c1ccc(Cl)cc1)CCCC3` , on Jurkat, turned out to be 55

So the reported Activity for `N#CCSc1nc2sc3ccccc3c2c(=O)n1-c1ccc2c(c1)OCO2` , on Jurkat, turned out to be 100

---

System: Jurkat
Procedure details: Inhibition of TNF-alpha-induced necroptosis in FADD-deficient Jurkat T cells
Format: functional, cell-based, Homo sapiens
Design: concentration or dose not given beside the values
Reported Activity by item:
Use % as the unit, but write only the number.

Use these answered entries as a reference point.
- Test smiles: "COc1ccc(-n2c(SCC#N)nc3sc4ccccc4c3c2=O)cc1"
  Target system: "Jurkat"
  Endpoint unit: "%"
  Activity: 83.3
- Test smiles: "CSc1nc2sc3c(c2c(=O)n1-c1ccc(F)cc1)CCCC3"
  Target system: "Jurkat"
  Endpoint unit: "%"
  Activity: 61.2
- Test smiles: "N#CCSc1nc2sc3ccccc3c2c(=O)n1-c1ccc2c(c1)OCCO2"
  Target system: "Jurkat"
  Endpoint unit: "%"
  Activity: 100
- Test smiles: "Cc1sc2nc(SCC#N)n(-c3ccc(OC(F)(F)F)cc3)c(=O)c2c1C"
  Target system: "Jurkat"
  Endpoint unit: "%"
  Activity: 63
- Test smiles: "CSc1nc2sc(C)c(C)c2c(=O)n1-c1ccc(F)cc1"
  Target system: "Jurkat"
  Endpoint unit: "%"
  Activity: 69.2
- Test smiles: "Cc1ccc(-n2c(SCC#N)nc3sc(C)c(C)c3c2=O)cc1C"
  Target system: "Jurkat"
  Endpoint unit: "%"
  Activity: 90.7
- Test smiles: "CCOc1ccc(-n2c(SCC#N)nc3sc4c(c3c2=O)CCCC4)cc1"
  Target system: "Jurkat"
  Endpoint unit: "%"
  Activity: 83.8

So the reported Activity for `N#CCSc1nc2sc3c(c2c(=O)n1-c1ccc2c(c1)OCCO2)CCCC3` , on Jurkat, turned out to be 100
